target: full-length human Hpk1 (Homo sapiens); construct: A recombinant fusion protein consisting of full-length human Hpk1; GST (N); assay: HPK1 kinase assay (ADP Glo Kinase Assay); type: biochemical; details: full-length human GST-Hpk1, ADP Glo, 75 μM ATP; read-out: Hpk1 biochemical (pIC50) (converted)
Sequence (Q92918 whole entry, the tested form may be a part): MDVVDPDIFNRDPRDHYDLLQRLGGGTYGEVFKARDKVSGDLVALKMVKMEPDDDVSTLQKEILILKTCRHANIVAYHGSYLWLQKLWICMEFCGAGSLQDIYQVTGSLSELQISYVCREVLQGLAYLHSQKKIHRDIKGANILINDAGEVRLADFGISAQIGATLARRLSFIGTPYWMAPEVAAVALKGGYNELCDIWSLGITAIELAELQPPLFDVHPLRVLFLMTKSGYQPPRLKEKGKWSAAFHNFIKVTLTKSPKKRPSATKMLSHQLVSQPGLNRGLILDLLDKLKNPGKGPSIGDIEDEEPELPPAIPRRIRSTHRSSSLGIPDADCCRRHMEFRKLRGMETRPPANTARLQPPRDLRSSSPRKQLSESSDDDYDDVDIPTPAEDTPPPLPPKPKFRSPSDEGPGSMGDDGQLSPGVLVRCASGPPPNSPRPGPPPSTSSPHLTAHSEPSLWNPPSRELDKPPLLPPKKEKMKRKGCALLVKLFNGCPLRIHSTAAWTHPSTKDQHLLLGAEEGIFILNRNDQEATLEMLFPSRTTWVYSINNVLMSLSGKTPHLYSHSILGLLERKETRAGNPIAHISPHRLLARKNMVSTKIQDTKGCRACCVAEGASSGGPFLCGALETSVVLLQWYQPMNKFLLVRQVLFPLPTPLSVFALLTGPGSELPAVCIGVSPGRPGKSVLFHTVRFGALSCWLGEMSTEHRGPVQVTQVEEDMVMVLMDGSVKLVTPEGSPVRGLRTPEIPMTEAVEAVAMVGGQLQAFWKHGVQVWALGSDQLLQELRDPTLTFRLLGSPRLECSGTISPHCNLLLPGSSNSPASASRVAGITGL
OUTCOME_MEASURE: IC50 (nM)
One number for each entry, in nM.

Nc1ncc(-c2ccc(C3CCOCC3)c([C@@H]3CCCN3)c2)cc1C1CCOCC1 ... 43.7

// input: 4 molecules below; output: IC50 for each
1. Nc1ncc(-c2ccc(C3CCOCC3)c([C@@H]3CCCN3)c2)cc1-c1cncnc1
2. Nc1ncc(-c2ccc(C3CCOCC3)c(-c3cnc[nH]3)c2)cc1-c1ccncc1
3. Nc1ncc(-c2ccc(C3=CCSCC3)c([C@@H]3CCCN3)c2)cc1-c1ccnc(F)c1
4. Nc1ncc(-c2ccc(C3CCOCC3)c(CNC3COC3)c2)cc1-c1ccnc(F)c1

[53.7, 186, 25.1, 380]
